inhibition of growth at 100 µM listing for selected compounds.
Tested on: PC-3
test.details: Growth inhibition of human PC3 cells at 100 uM after 48 hrs by SRB assay
Format: functional
settings: PC-3, 48 h, read-out: GI
Entry rule: numbers only, all in %.

INSERT INTO assay_data (smiles_input, number) VALUES
  ('O=C1C(=O)N(CCn2cc(CN3C(=O)C(=O)c4cc([N+](=O)[O-])ccc43)nn2)c2ccc(Cl)cc21', 72),
  ('O=C1C(=O)N(CCn2cc(CN3C(=O)C(=O)c4cc(Br)ccc43)nn2)c2ccc(Cl)cc21', 70),
  ('O=C1C(=O)N(CCn2cc(CN3C(=O)C(=O)c4cc(F)ccc43)nn2)c2ccccc21', 100);

Now look at this one.
Kindly note the recorded inhibition of growth at 100 µM for O=C1C(=O)N(CCn2cc(CN3C(=O)C(=O)c4cc([N+](=O)[O-])ccc43)nn2)c2ccccc21 , which is 99

Where do these numbers come from? They come from ChEMBL document CHEMBL2062394.
